# experimental_system: UniProt P21554
# Sequence (P21554 whole entry): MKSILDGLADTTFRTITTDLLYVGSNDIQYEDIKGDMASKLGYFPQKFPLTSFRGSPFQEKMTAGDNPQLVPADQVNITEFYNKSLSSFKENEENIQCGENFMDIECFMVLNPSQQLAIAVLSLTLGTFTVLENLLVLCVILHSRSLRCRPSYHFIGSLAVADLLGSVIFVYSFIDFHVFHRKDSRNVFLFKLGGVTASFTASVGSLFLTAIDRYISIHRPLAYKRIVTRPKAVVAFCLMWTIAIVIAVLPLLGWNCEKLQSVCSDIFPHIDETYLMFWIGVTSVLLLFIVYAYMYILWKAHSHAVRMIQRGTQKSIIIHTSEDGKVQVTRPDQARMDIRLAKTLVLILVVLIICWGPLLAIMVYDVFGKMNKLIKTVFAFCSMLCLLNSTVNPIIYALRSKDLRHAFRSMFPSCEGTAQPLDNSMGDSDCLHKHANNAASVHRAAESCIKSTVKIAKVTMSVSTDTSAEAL
readout_label: IC50

Fill in the blank: the reported IC50 of O=C(c1ccc(Cc2ccccc2)cc1)C1CCN(C(=O)c2cc(O)c(F)cc2F)CC1 is ____.
> 10 µM

###

# experimental_system: Fatty-acid amide hydrolase 1 (Homo sapiens) (UniProt O00519)
# Sequence (O00519 whole entry): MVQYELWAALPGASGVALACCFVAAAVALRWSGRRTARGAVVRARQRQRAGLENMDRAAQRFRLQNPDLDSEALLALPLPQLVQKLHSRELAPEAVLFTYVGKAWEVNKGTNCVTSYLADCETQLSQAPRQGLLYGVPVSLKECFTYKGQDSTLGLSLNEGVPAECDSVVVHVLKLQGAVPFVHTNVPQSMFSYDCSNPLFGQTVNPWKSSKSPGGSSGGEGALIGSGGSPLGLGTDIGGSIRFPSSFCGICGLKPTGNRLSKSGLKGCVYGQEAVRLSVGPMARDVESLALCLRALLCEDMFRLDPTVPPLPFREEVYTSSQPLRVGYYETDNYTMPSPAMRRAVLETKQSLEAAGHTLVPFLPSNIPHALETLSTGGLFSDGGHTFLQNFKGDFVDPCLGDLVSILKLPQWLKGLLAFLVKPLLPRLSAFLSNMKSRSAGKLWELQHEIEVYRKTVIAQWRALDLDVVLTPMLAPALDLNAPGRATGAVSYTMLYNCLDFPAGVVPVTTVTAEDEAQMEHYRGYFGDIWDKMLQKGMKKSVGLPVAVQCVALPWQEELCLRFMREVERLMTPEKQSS
# assay_notes: Inhibition of FAAH in human U937 cells assessed as reduction in [3H]ethanolamine formation using [ethanolamine-1-3H]AEA as substrate at 10 uM incubated for 15 mins by liquid scintillation spectroscopy
# Format: cell-based
# particulars: U-937
// inhibition lookup, one value per entry
Respond with the bare value in %.

{"molecular_string": "O=C(c1ccc(Cc2ccccc2)cc1)C1CCN(C(=O)c2cc(O)c(F)cc2F)CC1", "units_text": "%", "meas_value": 21}

Continue with the next molecule.
# query: inhibition of entry O=C(c1ccc(Sc2ccccc2)cc1)C1CCN(C(=O)c2cc(O)c(F)cc2F)CC1
22

###

# experimental_system: Monoglyceride lipase (Homo sapiens, UniProt Q99685)
# Sequence (Q99685 whole entry): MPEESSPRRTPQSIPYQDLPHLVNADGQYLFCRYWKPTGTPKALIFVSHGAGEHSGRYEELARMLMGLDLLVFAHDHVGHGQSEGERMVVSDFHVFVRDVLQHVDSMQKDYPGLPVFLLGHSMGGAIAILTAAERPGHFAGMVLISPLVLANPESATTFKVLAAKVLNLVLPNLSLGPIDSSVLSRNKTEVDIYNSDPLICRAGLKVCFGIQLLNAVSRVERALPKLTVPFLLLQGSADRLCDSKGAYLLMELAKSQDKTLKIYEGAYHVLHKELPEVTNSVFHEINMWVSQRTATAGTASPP
# assay_notes: Inhibition of human recombinant MAGL using 4-nitrophenylacetate as substrate incubated for 30 mins by microplate reader assay
pIC50: −log10 of the molar value.
readout_label: pIC50

Would you please look over these solved cases?
{"molecular_string": "CC(C)c1ccc(C(=O)C2CCN(C(=O)c3ccnc(O)c3)CC2)cc1", "meas_value": "< 5.00"}
{"molecular_string": "CC(C)c1ccc(C(=O)C2CCN(C(=O)c3cccc(O)n3)CC2)cc1", "meas_value": "< 5.00"}

Alright, here's another compound for you.
So what's the measured pIC50 for this one? CC(C)c1ccc(C(=O)C2CCN(C(=O)c3cc(O)ccn3)CC2)cc1
< 5.00
